Tested on: intracellular proteome of ENR+CD and ENR organoids
test: LC-MS/MS TMT proteomics of ENR+CD versus ENR organoids
Assay type: cell-based, C57BL/6 mice
settings: up = enriched in ENR+CD, down = enriched in ENR; FDR<0.05 and log fold change cut-off
recorded.endpoint: change

- molecule: "O88451 (protein, UniProt O88451 1-316, looked up, full-length) MWLYLVALVGLWTLLRFFRERQVVSHLQDKYVFITGCDSGFGNLLARQLDRRGMRVLAACLTEKGAEQLRNKTSDRLETVILDVTKTESIVAATQWVKERVGNRGLWGLVNNAGICVFAINEWLKKEDFANILDVNLLGMIEVTLSMLPLVRKARGRVVNISSSMGRVSLCGGGYCISKYGVEAFSDSLRREISYFGVKVAIIEPGGFRTNVSNYERLSHSIEKLWDQTSSEVKEVYDKNFLDSYIKAIQSLTDTCSDDLSVVTDCMEHALTACHPRTRYSAGWDAKLFYLPLSYMPTFLVDAMLYWSSVKPAQAL"
  reported.result: "down"
- molecule: "Q9CQU5 (protein, UniProt Q9CQU5 1-252, looked up, full-length) MADAEKNAVAEKNNAVATKEVLAEAAAILEPVGLQEEAELPAKIMEEFMRNSRKKDKLLCSQLQVVNFLQTFLAQEDTEQSPDALASEDASRQKATETKEQWKDMKATYMDHVDVIKCALSEALPQVKEAHRKYTELQKAFEQLEAKKRVLEEKLQLAQKQWVLQQKRLQNLTKISAEVKRRRKRALEKLDGSHQELETLKQQAGQEQEKLQRNQSYLQLLCSLQNKLVISEGKAEDKDVKGRALTAKSKSP"
  reported.result: "down"
- molecule: "Q9JHT5 (protein, UniProt Q9JHT5 1-344, looked up, full-length) MAAGCCGVKKQKLSSSPPSGSGGGGGASSSSHCSGESQCRAGELGLGGAGTRLNGLGGLSGGGGSGGGGGCPLSPPQGCGGGGGGGGGGGSGSGGGGISLSPPLSCGVGTLLSTPAAATASSPSSSSSSPGSRKMVVSAEMCCFCFDVLYCHLYGYQQPRTPRFTNEPYPLFVTWKIGRDKRLRGCIGTFSAMNLHSGLREYTLTSALKDSRFPPMTRDELPRLFCSVSLLTNFEDVCDYLDWEVGVHGIRIEFINEKGSKRTATYLPEVAKEQGWDHIQTIDSLLRKGGYKAPITNEFRKTIKLTRYRSEKMTLSYAEYLAHRQHHHFQNGIGHPLPPYNHYS"
  reported.result: "up"
- molecule: "Q64669 (protein, UniProt Q64669 1-274, looked up, full-length) MAARRALIVLAHSEKTSFNYAMKEAAVEALKKRGWEVLESDLYAMNFNPIISRNDITGELKDSKNFQYPSESSLAYKEGRLSPDIVAEHKKLEAADLVIFQFPLQWFGVPAILKGWFERVLVAGFAYTYAAMYDNGPFQNKKTLLSITTGGSGSMYSLQGVHGDMNVILWPIQSGILRFCGFQVLEPQLVYSIGHTPPDARMQILEGWKKRLETVWEETPLYFAPSSLFDLNFQAGFLMKKEVQEEQKKNKFGLSVGHHLGKSIPADNQIKARK"
  reported.result: "down"
- molecule: "O35943 (protein, UniProt O35943 1-207, looked up, full-length) MWAFGGRAAVGLLPRTASRASAWVGNPRWREPIVTCGRRGLHVTVNAGATRHAHLNLHYLQILNIKKQSVCVVHLRNLGTLDNPSSLDETAYERLAEETLDSLAEFFEDLADKPYTLEDYDVSFGDGVLTIKLGGDLGTYVINKQTPNKQIWLSSPSSGPKRYDWTGKNWVYSHDGVSLHELLARELTKALNTKLDLSSLAYSGKGT"
  reported.result: "down"
- molecule: "P97314 (protein, UniProt P97314 1-193, looked up, full-length) MPVWGGGNKCGACGRTVYHAEEVQCDGRSFHRCCFLCMVCRKNLDSTTVAIHDEEIYCKSCYGKKYGPKGYGYGQGAGTLNMDRGERLGIKPESAQPHRPTTNPNTSKFAQKYGGAEKCSRCGDSVYAAEKIIGAGKPWHKNCFRCAKCGKSLESTTLTEKEGEIYCKGCYAKNFGPKGFGYGQGAGALVHAQ"
  reported.result: "down"
- molecule: "Q99LD8 (protein, UniProt Q99LD8 1-285, looked up, full-length) MGTPGEGLGRCSHALIRGVPESLASGEGAGAGLPALDLAKAQREHGVLGGKLRQRLGLQLLELPPEESLPLGPLLGDTAVIQGDTALITRPWSPARRPEVDGVRKALQDLGLRIVEMGDENATLDGTDVLFTGREFFVGLSKWTNHRGAEIVADTFRDFAVSTVPVSGSSHLRGLCGMGGPRTVVAGSSEAAQKAVRAMAALTDHPYASLTLPDDAASDCLFLRPGLPGATPFLLHRGGGDLPNSQEALQKLSDVTLVPVSCSELEKAGAGLSSLCLVLSTRPHC"
  reported.result: "up"
- molecule: "P50543 (protein, UniProt P50543 1-98, looked up, full-length) MPTETERCIESLIAVFQKYSGKDGNNTQLSKTEFLSFMNTELAAFTKNQKDPGVLDRMMKKLDLNCDGQLDFQEFLNLIGGLAIACHDSFIQTSQKRI"
  reported.result: "up"
- molecule: "Q99M54 (protein, UniProt Q99M54 1-266, looked up, full-length) MGSTQSVSGTPARPLPRNKQVARVADPRSPSAGIQRTPIQVESSPQPSLPAEQLNGLKQAQDPDPRSPTLGIARTPMKISGPDPQCSLVKELSEVLETEASESISSPELALPRETPLFYDLDLSSDPQLSPEDQLLPWSQAELDPKQVFTKEEAKQSAETIAASQNSDKPSRDPETPQSSGSKRSRRKANSKVLGRSPLTILQDDNSPGTLTLRQGKRPSALSENVKDLKEGVVLGTGRFLKAGGGAREPNQDHDKENQHFALLES"
  reported.result: "down"
